Listing of entries alongside the reported percentage reversal of NOV1401 aPTT prolongation, NOV1401/anti NOV1401 ratio 1/1 (n/n).
# TARGET_OF_ASSAY: anti-FXI/FXIa antibody NOV1401
# Sequence (VH, as listed by the source, chain 1 of 2): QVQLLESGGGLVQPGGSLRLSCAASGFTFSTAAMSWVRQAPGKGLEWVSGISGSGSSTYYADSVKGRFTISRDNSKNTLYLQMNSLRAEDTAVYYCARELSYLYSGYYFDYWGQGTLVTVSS
# Sequence (VL, as listed by the source, chain 2 of 2): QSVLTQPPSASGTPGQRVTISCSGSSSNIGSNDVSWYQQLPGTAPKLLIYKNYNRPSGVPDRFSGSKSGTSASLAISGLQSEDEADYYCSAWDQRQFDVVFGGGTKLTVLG
# PROTOCOL_NOTES: cell-based or functional assay

Worked examples follow.
1. IDT6 anti-NOV1401 Fab (Fab, V domains shown, Human Fab with a lambda light chain; The heavy chain entry is VH-CH1 (Fd); also called antidote) VH: QVQLVQSGAEVKKPGESLKISCKGSGYSFTNYWIGWVRQMPGKGLEWMGIIFPGVSYTKYSPSFQGQVTISADKSISTAYLQWSSLKASDTAMYYCARGSDQTLRGSRAMDYWGQGTLVTVSS VL: QSALTQPASVSGSPGQSITISCTGTSSDVGISNYVSWYQQHPGKAPKLMIYEVSNRPSGVSNRFSGSKSGNTASLTISGLQAEDEADYYCQSYTSLNYVFGGGTKLTVLG | 9%
2. IDT9 anti-NOV1401 Fab (Fab, V domains shown, Human Fab; The heavy chain entry is VH-CH1 (Fd); also called antidote) VH: QVQLVQSGAEVKKPGASVKVSCKASGYTFTNYYVHWVRQAPGQGLEWMGWINPYNGNTNYAQKFQGRVTMTRDTSISTAYMELSRLRSEDTAVYYCARGASSIRMSYYLDVWGQGTLVTVSS VL: DIQMTQSPSSLSASVGDRVTITCRASQSISNYLNWYQQKPGKAPKLLIYAASNLQSGVPSRFSGSGSGTDFTLTISSLQPEDFATYYCFQYTHSPATFGQGTKVEIKR | 10%

Alright, here's another binder for you.
**Query** State its percentage reversal of NOV1401 aPTT prolongation, NOV1401/anti NOV1401 ratio 1/1 (n/n) for this binder: IDT4 anti-NOV1401 Fab (Fab, V domains shown, Human Fab; The heavy chain entry is VH-CH1 (Fd); also called antidote) VH: QVQLVESGGGLVKPGGSLRLSCAASGFTFSSAAVHWVRQAPGKGLEWVGRIKSKASGGTTDYAAPVKGRFTISRDDSKNTLYLQMNSLKTEDTAVYYCARDSPSISSYSIPYFSGMDVWGQGTLVTVSS VL: DIQMTQSPSSLSASVGDRVTITCRASQGIRAWLNWYQQKPGKAPKLLIYAASSLQSGVPSRFSGSGSGTDFTLTISSLQPEDFATYYCHQYITHPPTFGQGTKVEIKR
**Result** 10%
